Study system: hDRD2 (Homo sapiens, UniProt P14416);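 further: agonist activity at human DRD2 in DRD2-expressing cells, read as intracellular calcium mobilization with a FLIPR Calcium 4 fluorescent dye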
Sequence (P14416 whole entry): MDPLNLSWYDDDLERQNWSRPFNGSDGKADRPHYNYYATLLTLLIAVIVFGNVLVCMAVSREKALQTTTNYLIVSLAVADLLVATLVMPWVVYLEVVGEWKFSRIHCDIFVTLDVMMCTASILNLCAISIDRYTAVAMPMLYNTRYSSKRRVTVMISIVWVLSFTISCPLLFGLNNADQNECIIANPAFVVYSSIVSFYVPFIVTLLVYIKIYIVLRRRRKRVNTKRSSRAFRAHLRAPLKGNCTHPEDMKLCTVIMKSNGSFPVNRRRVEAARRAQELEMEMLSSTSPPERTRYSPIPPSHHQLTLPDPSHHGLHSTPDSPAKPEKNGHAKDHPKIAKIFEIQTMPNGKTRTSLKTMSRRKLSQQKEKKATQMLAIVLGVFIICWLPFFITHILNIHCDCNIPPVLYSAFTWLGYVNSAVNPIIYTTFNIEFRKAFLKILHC
Measurement description: cell-based
pEC50: −log10 of the molar value. Bridge positions count the residues as written; N and C are the ends. Square brackets hold non-standard residues; d marks the D form. Peptide text beside a SMILES is read from it. * marks the point of attachment. X2 = CN1C[C@H](CSCC(=O)*)C[C@@H]2c3cccc4[nH]cc(c34)C[C@H]21; 4Pal = N[C@@H](Cc1ccncc1)C(=O)O

# Molecule, pEC50
measured = [
    ("C[C@@H](O)[C@@H]1NC(=O)[C@H](CCCCN)NC(=O)[C@@H](Cc2c[nH]c3ccccc23)NC(=O)[C@H](Cc2ccccc2)NC(=O)[C@H](Cc2ccccc2)NC(=O)[C@H](CCCNC(=N)N)NC(=O)[C@@H](NC[C@H](Cc2ccc(O)cc2)NC(=O)CSC[C@@H]2C[C@@H]3c4cccc5[nH]cc(c45)C[C@H]3N(C)C2)CCCCNC(=O)[C@H](Cc2ccccc2)NC1=O", 7.42),
    ("C[C@@H](O)[C@@H]1NC(=O)[C@H](CCCCN)NC(=O)[C@@H](Cc2c[nH]c3ccccc23)NC(=O)[C@H](Cc2ccccc2)NC(=O)[C@H](Cc2ccccc2)NC(=O)[C@H](CCCNC(=N)N)NC(=O)[C@H](NC[C@H](Cc2ccc(O)cc2)NC(=O)CSC[C@@H]2C[C@@H]3c4cccc5[nH]cc(c45)C[C@H]3N(C)C2)CCCCNC(=O)[C@H](Cc2ccc(O)cc2)NC1=O", 7.29),
    ("C[C@@H](O)[C@@H]1NC(=O)[C@H](CCCCN)NC(=O)[C@@H](Cc2c[nH]c3ccccc23)NC(=O)[C@H](Cc2ccncc2)NC(=O)[C@H](Cc2ccccc2)NC(=O)[C@H](CCCNC(=N)N)NC(=O)[C@H](NC(=O)CSC[C@@H]2C[C@@H]3c4cccc5[nH]cc(c45)C[C@H]3N(C)C2)CCCCNC(=O)[C@H](Cc2ccc(O)cc2)NC1=O [Compound 25] (X2-[dK]RF[4Pal][dW]KTY; lactam 1-C)", 7.57),
    ("C[C@@H](O)[C@@H]1NC(=O)[C@H](CCCCN)NC(=O)[C@@H](Cc2c[nH]c3ccccc23)NC(=O)[C@H](Cc2ccccc2)NC(=O)[C@H](Cc2ccccc2)NC(=O)[C@H](CCCNC(=N)N)NC(=O)[C@H](NCCS(=O)(=O)C[C@@H]2C[C@@H]3c4cccc5[nH]cc(c45)C[C@H]3N(C)C2)CCCCNC(=O)[C@H](Cc2ccc(F)cc2)NC1=O", 7.62),
    ("C[C@@H](O)[C@@H]1NC(=O)[C@H](CCCCN)NC(=O)[C@@H](Cc2c[nH]c3ccccc23)NC(=O)[C@H](Cc2ccccc2)NC(=O)[C@H](Cc2ccccc2)NC(=O)[C@H](CCCNC(=N)N)NC(=O)[C@H](NCC[S+]([O-])C[C@@H]2C[C@@H]3c4cccc5[nH]cc(c45)C[C@H]3N(C)C2)CCCCNC(=O)[C@H](Cc2ccc(F)cc2)NC1=O (stereo partly drawn)", 8.06),
    ("C[C@@H](O)[C@@H]1NC(=O)[C@H](CCCCN)NC(=O)[C@@H](Cc2c[nH]c3ccccc23)NC(=O)[C@H](Cc2ccccc2)NC(=O)[C@H](Cc2ccccc2)NC(=O)[C@H](CCCNC(=N)N)NC(=O)[C@H](NCCSC[C@@H]2C[C@@H]3c4cccc5[nH]cc(c45)C[C@H]3N(C)C2)CCCCNC(=O)[C@H](Cc2ccc(F)c(F)c2)NC1=O", 7.21),
]

Data origin, for the record: patent EP2914280B1
